- assay-name: Human HepG2 cell viability assay in 384 well format
- Assay type: toxicity, cell-based
- Parameters: dose 125 nL, time 70.5 hour; concentration not given beside the values
- test-settings: HepG2 cells, read-out: Inhibition
For each of the compounds below, state its cytotoxicity at 70.5 h.
State just the number; it will be interpreted in %.

The compound listed as CN(C)C(=O)Cn1ccc2cc(NC(=O)N3CCSCC3)ccc21 shows cytotoxicity at 70.5 h equal to -7.46

The compound listed as NC(=O)c1cnn2c1NCC(CNCC1(c3ccccc3)CCC1)C2 (centres undefined) shows cytotoxicity at 70.5 h equal to 10.4

The compound listed as Cc1noc(NCc2ccc(F)cc2)n1 shows cytotoxicity at 70.5 h equal to -1.48

The compound listed as Cc1cc(C)n(CC2CCCN2C(=O)c2ccc3ccccc3n2)n1 (centres undefined) shows cytotoxicity at 70.5 h equal to -10.7

The compound listed as CCO[C@H]1CO[C@@]2(CCN(Cc3ccc4c(c3)OCO4)C2)C1 shows cytotoxicity at 70.5 h equal to -9.21

The compound listed as Cn1cc(N2CCCC(NCc3cccc4c3OCCCO4)C2)cn1 (centres undefined) shows cytotoxicity at 70.5 h equal to -14.6

The compound listed as Cc1nn(C)c(N(C)C)c1CNCc1cccnc1-n1cncn1 shows cytotoxicity at 70.5 h equal to -5.08

The compound listed as O=C(c1cscn1)N1CC[C@@H]2[C@@H]1CCN2CC1CCOC1 (some centres undefined) shows cytotoxicity at 70.5 h equal to -1.02

The compound listed as COc1cc(/C=C/c2ncc(C(=O)O)s2)cc(OC)c1 shows cytotoxicity at 70.5 h equal to 14.7

The compound listed as CSc1ccc(CCN2CCN([C@H]3CCCC[C@@H]3O)CC2)cc1 shows cytotoxicity at 70.5 h equal to -8.75

The compound listed as COc1ccc(CN(C)Cn2cc(C)n(-c3cc(C)on3)c2=O)cc1 shows cytotoxicity at 70.5 h equal to -12.5

The compound listed as c1ccc2c(Cc3nnc([C@H]4CCN(CC5CC5)C4)o3)c[nH]c2c1 shows cytotoxicity at 70.5 h equal to -0.383

The compound listed as CCCNC(=O)c1cc(C2CCCN(Cc3ccccn3)C2)no1 (centres undefined) shows cytotoxicity at 70.5 h equal to 21.2

The compound listed as O=C(NCCn1ccnc1)NCC(c1ccco1)N1CCCCC1 (centres undefined) shows cytotoxicity at 70.5 h equal to -9.78

The compound listed as Cn1c(C2CCCCN2C(=O)CN2CCCC2=O)nc2ccccc21 (centres undefined) shows cytotoxicity at 70.5 h equal to 21.3

The compound listed as Cn1cccc1C(=O)N1CC[C@H]2[C@@H]1CCC(=O)N2c1ccccc1 shows cytotoxicity at 70.5 h equal to 11.6

The compound listed as COCC(C)N1CCc2onc(-c3ccc(C(F)(F)F)cc3)c2C1 (centres undefined) shows cytotoxicity at 70.5 h equal to -7.25

The compound listed as c1csc(N2CCN(c3nccn4cnnc34)CC2)n1 shows cytotoxicity at 70.5 h equal to -3.57

The compound listed as Cc1nc(-c2ccsc2)ccc1C(=O)NCCC1CCCO1 (centres undefined) shows cytotoxicity at 70.5 h equal to 28.6

The compound listed as CN(Cc1cc2ccccc2o1)S(C)(=O)=O shows cytotoxicity at 70.5 h equal to -1.88

The compound listed as OCC(O)CN(CCN1CCOCC1)Cc1ccco1 (centres undefined) shows cytotoxicity at 70.5 h equal to -8.67

The compound listed as Cc1n[nH]c(C2CN(CC(=O)NCCc3ccccc3C)CCO2)n1 (centres undefined) shows cytotoxicity at 70.5 h equal to -109

The compound listed as COc1ccccc1S(=O)(=O)N1CCC2(CC1)[C@H](O)C[C@@H]2O shows cytotoxicity at 70.5 h equal to -10.2

The compound listed as Nc1nccc(-c2c[nH]nc2C2CCCCC2)n1 shows cytotoxicity at 70.5 h equal to 47.1

###

- assay-name: Human HepG2 cell viability assay in 384 well format
- Type: toxicity, cell-based
- Parameters: dose 125 nL, time 70.5 hour; concentration not given beside the values
- test-settings: HepG2 cells, read-out: Inhibition
observed-property: cytotoxicity at 70.5 h
Respond with a number, then the unit of measure.

The compound listed as CC(C(=O)N1CCc2ccccc2C1)N(C)Cc1cscn1 (stereo unspecified) shows cytotoxicity at 70.5 h equal to -4.2%

The compound listed as CCNC(=O)[C@@H]1CCCN1[C@@H](C(=O)NC)C1CC1 shows cytotoxicity at 70.5 h equal to -2.16%

The compound listed as COc1cc(CNc2nc(N3CCOCC3)ns2)cc(OC)c1OC shows cytotoxicity at 70.5 h equal to -5.63%

The compound listed as CC(NC(=O)C1(NC(=O)c2ccc3[nH]ncc3c2)CCCC1)C1CC1 (stereo unspecified) shows cytotoxicity at 70.5 h equal to -5.24%

The compound listed as Cc1nnc(CN2CCN(C(C)c3nc(C4CC4)no3)CC2)o1 (stereo unspecified) shows cytotoxicity at 70.5 h equal to -1.41%

The compound listed as CCc1nc(C2CCCN2CC(=O)Nc2c(C)n[nH]c2C)no1 (stereo unspecified) shows cytotoxicity at 70.5 h equal to 5.42%

The compound listed as CCc1cc(N(C)Cc2ncc[nH]2)nc(N2CCOCC2)n1 shows cytotoxicity at 70.5 h equal to -15.9%

The compound listed as CCc1cc(CNC(=O)N2Cc3ccccc3N(C)CC2C)[nH]n1 (stereo unspecified) shows cytotoxicity at 70.5 h equal to -0.192%

The compound listed as Cc1ccc(CC2COCCN(S(C)(=O)=O)C2)nc1 (stereo unspecified) shows cytotoxicity at 70.5 h equal to 12.3%

The compound listed as Cc1nc(C)n(C2CCCN(C(=O)c3ccc4c(c3)COC4)C2)n1 (stereo unspecified) shows cytotoxicity at 70.5 h equal to 0.389%

The compound listed as CN1CCCC1c1ccc(C(=O)Nc2c3c(nn2C)CCC3)s1 (stereo unspecified) shows cytotoxicity at 70.5 h equal to -13%

###

For each of the molecules below, state its cytotoxicity at 70.5 h.
- assay-name: Human HepG2 cell viability assay in 384 well format
- Format: toxicity, cell-based
- Design: dose 125 nL, time 70.5 hour; concentration not given beside the values
- test-settings: HepG2 cells, read-out: Inhibition
State just the number; it will be interpreted in %.

The molecule listed as c1cnc(NC[C@@H]2CCC[C@@H]3CN(Cc4cc[nH]n4)C[C@@H]32)nc1 shows cytotoxicity at 70.5 h equal to -5.11

The molecule listed as CC1=C(C#N)C(=O)NC(=O)/C1=C\c1c(C)nn(-c2ccc(C)cc2)c1O shows cytotoxicity at 70.5 h equal to -2.65

The molecule listed as CC(C)Nc1ncccc1C(=O)NCc1ncc[nH]1 shows cytotoxicity at 70.5 h equal to -1.28

The molecule listed as CCN1CCN(c2nc(C(C)C)nc3c(C)nn(CC)c23)CC1 shows cytotoxicity at 70.5 h equal to 13.6

The molecule listed as CCn1c(C)nc2cc(NC(=O)C3CN(C(C)=O)C3)ccc21 shows cytotoxicity at 70.5 h equal to -5.1

The molecule listed as COc1cc(O)ccc1CN1CCN(C2CCc3ccccc3C2)CC1 (stereo unspecified) shows cytotoxicity at 70.5 h equal to -3.26

The molecule listed as CC(C)c1noc(CN(Cc2ccccc2F)C2CC2)n1 shows cytotoxicity at 70.5 h equal to -12

The molecule listed as CCCS(=O)(=O)N1CCC2(CC1)COCCN(C(C)=O)C2 shows cytotoxicity at 70.5 h equal to -4.27

The molecule listed as CN(Cc1cnn(C)c1)C(=O)CN1CCCC1Cn1cncn1 (stereo unspecified) shows cytotoxicity at 70.5 h equal to 21.4

The molecule listed as Cc1ccn2c(=O)cc(CSCC(=O)Nc3nnc(C(C)C)s3)nc2c1 shows cytotoxicity at 70.5 h equal to 23

The molecule listed as CC(=O)N1CCC(c2cc(C(F)(F)F)nc3nccn23)CC1 shows cytotoxicity at 70.5 h equal to -8.29

###

For each of the compounds below, state its cytotoxicity at 70.5 h.
- assay-name: Human HepG2 cell viability assay in 384 well format
- Assay type: toxicity, cell-based
- Parameters: dose 125 nL, time 70.5 hour; concentration not given beside the values
- test-settings: HepG2 cells, read-out: Inhibition
State just the number; it will be interpreted in %.

The compound listed as CCc1nc(C)sc1CN(Cc1ccncc1)C1CCN(C)CC1 shows cytotoxicity at 70.5 h equal to -6.03

The compound listed as N#Cc1cc(S(N)(=O)=O)ccc1NC1CCc2ccc(F)cc21 (centres undefined) shows cytotoxicity at 70.5 h equal to 7.54

The compound listed as CN(Cc1ccc(F)cc1)C(=O)Cn1nc(-c2ccc(F)cc2)oc1=O shows cytotoxicity at 70.5 h equal to 26.3

The compound listed as CC(O)CNC(=O)NCCCN1CCN(c2ncccn2)CC1 (centres undefined) shows cytotoxicity at 70.5 h equal to -6.22

The compound listed as COCCn1cc(NC(=O)C(C)CCc2ccccc2F)ccc1=O (centres undefined) shows cytotoxicity at 70.5 h equal to -11.1

The compound listed as Cn1nc(C(=O)NC2(c3ccc(Cl)cc3)CCCC2)ccc1=O shows cytotoxicity at 70.5 h equal to 24.7

The compound listed as CCc1nc(C)c(CC(=O)N2CCC3(CC2)OCCCC3O)c(=O)[nH]1 (centres undefined) shows cytotoxicity at 70.5 h equal to -6.44

The compound listed as O=C(C1CCCO1)N1CCc2ncnc(NC3CCC3)c2CC1 (centres undefined) shows cytotoxicity at 70.5 h equal to -15.3

The compound listed as COc1ccc2c(c1)C1(CCN(Cc3ccccn3)CC1)N(C)CC2 shows cytotoxicity at 70.5 h equal to 0.00866

The compound listed as O=C(c1ccnnc1)N1C[C@H]2CN(Cc3cccc(F)c3)C(=O)[C@H]2C1 shows cytotoxicity at 70.5 h equal to -13.7

The compound listed as CC(C)C[C@H](N)C(=O)N1CCSc2ccccc2C1 shows cytotoxicity at 70.5 h equal to 0.624

The compound listed as Cn1nccc1C(=O)N1CCCN(CCCc2ccccc2)CC1 shows cytotoxicity at 70.5 h equal to -0.514

The compound listed as CCCNC(=O)Nc1cc2c(cc1SC)OCCO2 shows cytotoxicity at 70.5 h equal to 0.576

The compound listed as CC(C)OCCC(=O)NCCc1csc(N2CCCC2)n1 shows cytotoxicity at 70.5 h equal to 5.53

The compound listed as OCCN1CCCCC1C1OCCO1 (centres undefined) shows cytotoxicity at 70.5 h equal to 0.562

The compound listed as Cc1c(CN2CCCC2c2cncc(CN3CCCC3)n2)cnn1C (centres undefined) shows cytotoxicity at 70.5 h equal to 1.84

The compound listed as Cc1ccc(S(=O)(=O)NCC2(O)CCOc3ccccc32)s1 (centres undefined) shows cytotoxicity at 70.5 h equal to -4.01

The compound listed as O=C1C[C@@H]2CCN(Cc3ccccc3)C[C@@H]2CCN1C1CCCCC1 shows cytotoxicity at 70.5 h equal to 6.87

The compound listed as CN(Cc1cccc(F)c1)Cc1nc2c(cnn2C)c(=O)[nH]1 shows cytotoxicity at 70.5 h equal to 5.31

The compound listed as O=C(C1=CCCC1)N1C[C@H](OCc2cccnc2)[C@H]2OCCC[C@H]21 shows cytotoxicity at 70.5 h equal to -9.34

The compound listed as CCCS(=O)(=O)N1CCC2(CCCN(c3ncc(F)cn3)C2)C1 (centres undefined) shows cytotoxicity at 70.5 h equal to -6.01

The compound listed as CCOc1ncccc1CNC(=O)Nc1ccc(N(C)C)nc1 shows cytotoxicity at 70.5 h equal to 17.3

The compound listed as Cc1nn(-c2ncnc3[nH]cnc23)c2c1C(C(C)(C)C)CC(=O)N2 (centres undefined) shows cytotoxicity at 70.5 h equal to 0.0512

The compound listed as Cc1ccccc1CC(=O)N1CCOCC1c1c(C)n[nH]c1C (centres undefined) shows cytotoxicity at 70.5 h equal to -6.23
